System: MOLM14
Experiment: cell viability relative to vehicle control; higher = less cytotoxic;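 further: after 48 h exposure read by CellTiter-Glo luminescence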
Settings: 10 µM; SRSF2 genotype: SRSF2 wt/wt
Structures can show the parent of a compound that is named as a salt.
endpoint label: cell viability (%)
Number only, in %; omit the unit.

Input: For the record Cc1ccc(-c2cc(C(F)(F)F)nn2-c2ccc(S(N)(=O)=O)cc2)cc1 [Celecoxib] , what value of cell viability is listed for MOLM14?
Output: 101

Input: Next record, please: O=C(Nc1ccccc1)c1cc([N+](=O)[O-])ccc1Cl
Output: 101

Input: Let us now turn to O=c1ccn([C@@H]2O[C@H](CO)[C@@H](O)[C@H]2O)c(=O)[nH]1 [Uridine]
Output: 90

Input: Now this one: CN(C)CC/C=C1/c2ccccc2Sc2ccc(Cl)cc21 [Chlorprothixene]
Output: 82.1

Input: CCCNC(=O)Nc1ccc(Oc2ncnc3cc(OC)c(OC)cc23)cc1Cl , same question.
Output: 105

Input: What about this compound? Cn1cc(-c2ccc3nnc(Sc4ccc5ncccc5c4)n3n2)cn1
Output: 99

Input: And what about the compound C[S+](CC[C@H](N)C(=O)[O-])C[C@H]1O[C@@H](n2cnc3c(N)ncnc32)[C@H](O)[C@@H]1O (some centres not stated) [Ademetionine] ?
Output: 111

Input: Please answer likewise for Nc1c(Br)cc(Br)cc1CN[C@H]1CC[C@H](O)CC1 [Ambroxol]
Output: 102

Input: Proceed to CCOc1cc(C(C)(C)C)ccc1C1=N[C@@](C)(c2ccc(Cl)cc2)[C@@](C)(c2ccc(Cl)cc2)N1C(=O)N1CCN(CCCS(C)(=O)=O)CC1
Output: 0.35

Input: Likewise for C[C@@H](O[C@H]1OCCN(Cc2nn(P(=O)(O)O)c(=O)[nH]2)[C@H]1c1ccc(F)cc1)c1cc(C(F)(F)F)cc(C(F)(F)F)c1 [Fosaprepitant dimeglumine salt] ?
Output: 65

Input: Follow-up entry: COC(=O)[C@@H]1CC2=CC(=O)CC[C@]2(C)[C@@]23O[C@@H]2C[C@@]2(C)[C@@H](CC[C@@]24CCC(=O)O4)[C@H]13 [Eplerenone]
Output: 95.6

Input: Param item: Cc1cc(Nc2cc(N3CCN(C)CC3)nc(/C=C/c3ccccc3)n2)n[nH]1 [ENMD-2076 L-(+)-Tartaric acid]
Output: 6.51

Input: Try this compound too: C/C(=C(/CCOC(=O)c1ccccc1)SC(=O)c1ccccc1)N(C=O)Cc1cnc(C)nc1N [Dibenzoyl Thiamine]
Output: 102

Input: And the next one, CNC1CCC(N(Cc2cccc(-c3ccncc3)c2)C(=O)c2sc3ccccc3c2Cl)CC1 (configuration not stated) [Smoothened Agonist (SAG) HCl] ?
Output: 48.6

Input: Likewise for O=c1c(O)c(-c2ccc(O)c(O)c2)oc2cc(O)ccc12 [Fisetin (Fustel)] ?
Output: 103

Input: Also Cc1cc(NS(=O)(=O)c2ccc(N)cc2)nc(C)n1 [sulfaisodimidine] ?
Output: 106

Input: Can you check COC(=O)CCSCc1ccc(-c2onc(C)c2NC(=O)OC(C)c2ccccc2Cl)cc1 (configuration not stated) next?
Output: 94.7

###

Tested on: OCI-AML2
Assay: cell viability relative to vehicle control; higher = less cytotoxic
Conditions: 10 µM; SRSF2 genotype: wt/wt
Counter-ions that a name gives are not always drawn.
endpoint label: cell viability (%)
Reply with just the number (in %).

Input: Reported cell viability, compound CCc1cccc(CC)c1NC(=O)N1Cc2[nH]nc(NC(=O)c3ccc(N4CCN(C)CC4)cc3)c2C1 : ____
Output: 23.3

Input: Next: C=C1C[C@@]23CC[C@H]4[C@@](C)(CCC[C@@]4(C)C(=O)O)[C@@H]2CC[C@@H]1C3
Output: 106

Input: Try COc1cc(OC)c(C(=O)CCCN2CCCC2)c(OC)c1 [Buflomedil HCl] next.
Output: 101

Input: Request: CC(C)=CC[C@@H](O)C1=CC(=O)c2c(O)ccc(O)c2C1=O
Output: 0.25
